- Measured Target: Complement C5 (Homo sapiens, UniProt P01031;P01031 P01031:19-673,P01031:678-1676)
- Test Name: filter; MgPBS 37C
- Condition Set: tags: Quidel
Value Kind: Kd (nM)
One number for each entry, in nM.

Example cases with answers are listed next.
> print(dat)
                                     binder  uom  reading
1  C9 (ssRNA, 2'-F pyrimidines) RNA: GGGAGGACGAUGCGGUGAGCGUGUAAAACGGUUUCGAUAGAGCCUCAGACGACUCGCCCGA   nM       45
2  E5c/E11 (ssRNA, 2'-F pyrimidines) RNA: GGGAGGACGAUGCGGUCCGGCGCGCUGAGUGCCGGUUAUCCUCGUCAGACGACUCGCCCGA   nM       60

Query binder follows.
Task: Given C6 (ssRNA, 2'-F pyrimidines) RNA: GGGAGGACGAUGCGGUCUCAUGCGUCGAGUGUGAGUUUACCUUCGUCAGACGACUCGCCCGA , state its recorded Kd.
Result: 30
